- method notes: AUC (0 to t) in CD rat plasma at 3 mg/kg/day, IV administered measured up to 24 hrs by LC-MS/MS analysis
- Type: ADME, organism-based
- Set-up: route intravenous, dose 3 mg/kg/day, time <=24
reported metric: AUC(0-t) at 24 h
Report as: number unit

Query block: Quick one: AUC(0-t) at 24 h of COc1ccc(NC(=O)c2cccc(-c3nc(NC(P(=O)(O)O)P(=O)(O)O)c4ccsc4n3)c2)cc1F ?
Result block: 149 µM·h

###

- method notes: AUC (0 to infinity) in CD rat plasma at 3 mg/kg/day, IV administered measured up to 24 hrs by LC-MS/MS analysis
- Type: ADME, organism-based
- Parameters: route intravenous, dose 3 mg/kg/day, time <=24
reported metric: AUC(0-inf)
Report as: number unit

Query block: Quick one: AUC(0-inf) of COc1ccc(NC(=O)c2cccc(-c3nc(NC(P(=O)(O)O)P(=O)(O)O)c4ccsc4n3)c2)cc1F ?
Result block: 155 µM·h

###

- study system: Geranylgeranyl pyrophosphate synthase (Homo sapiens, UniProt O95749)
- Sequence (O95749 whole entry): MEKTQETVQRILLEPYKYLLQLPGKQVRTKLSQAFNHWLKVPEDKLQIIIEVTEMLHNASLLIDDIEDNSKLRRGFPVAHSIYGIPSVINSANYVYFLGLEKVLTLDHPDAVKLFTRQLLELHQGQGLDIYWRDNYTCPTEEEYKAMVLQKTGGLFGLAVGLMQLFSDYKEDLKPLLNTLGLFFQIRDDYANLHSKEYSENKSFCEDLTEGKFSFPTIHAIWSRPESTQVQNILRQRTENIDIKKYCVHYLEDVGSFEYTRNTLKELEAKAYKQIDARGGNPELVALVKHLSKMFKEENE
Attribute: pIC50
// scale note: pIC50 = -log10(conc_M); give the bare number

Some solved entries appear below for comparison.
>>> experimental_value("COc1ccc(NC(=O)Nc2cccc(-c3nc(NC(P(=O)(O)O)P(=O)(O)O)c4ccsc4n3)c2)cc1F")
7.47
>>> experimental_value("COc1ccc([C@@H](OC(C)C)C(=O)Nc2cccc(-c3nc(NC(P(=O)(O)O)P(=O)(O)O)c4ccsc4n3)c2)cc1F")
7.70
>>> experimental_value("Cc1ccc(NC(=O)c2cccc(-c3nc(NC(P(=O)(O)O)P(=O)(O)O)c4ccsc4n3)c2)cc1Br")
7.82
>>> experimental_value("COc1ccc(S(=O)(=O)Nc2cccc(-c3nc(NC(P(=O)(O)O)P(=O)(O)O)c4ccsc4n3)c2)cc1F")
7.62

Query block: Fill in the recorded pIC50 for this compound, with Geranylgeranyl pyrophosphate synthase (Homo sapiens, UniProt O95749) as test system: O=C(Nc1cccc(-c2nc(NC(P(=O)(O)O)P(=O)(O)O)c3ccsc3n2)c1)c1ccc(C(F)(F)F)cc1
Result block: 7.74

Query block: Fill in the recorded pIC50 for this compound, with Geranylgeranyl pyrophosphate synthase (Homo sapiens, UniProt O95749) as test system: O=C(Cc1cccnc1)Nc1cccc(-c2nc(NC(P(=O)(O)O)P(=O)(O)O)c3ccsc3n2)c1
Result block: 7.15

###

- method notes: Volume of distribution at steady state in CD rat at 3 mg/kg/day, IV administered measured up to 24 hrs by LC-MS/MS analysis
- Assay type: ADME, organism-based
- condition set: in vivo, read-out: Vdss
reported metric: Vd
Report as: number unit

Query block: Quick one: Vd of COc1ccc(NC(=O)c2cccc(-c3nc(NC(P(=O)(O)O)P(=O)(O)O)c4ccsc4n3)c2)cc1F ?
Result block: 0.211 L/kg
